Recorded EC50 values for a group of compounds are listed next.
target-of-assay: F508delCFTR (Homo sapiens, UniProt P13569, DEL508-508)
Construct: expressed in transfected cells; host or cells: CFBE41o- human lung-derived epithelial cells (CFBE4lo-F508delCFTR-HRP), doxycycline-inducible
Sequence (P13569 with tags, fused parts or gaps DEL508-508): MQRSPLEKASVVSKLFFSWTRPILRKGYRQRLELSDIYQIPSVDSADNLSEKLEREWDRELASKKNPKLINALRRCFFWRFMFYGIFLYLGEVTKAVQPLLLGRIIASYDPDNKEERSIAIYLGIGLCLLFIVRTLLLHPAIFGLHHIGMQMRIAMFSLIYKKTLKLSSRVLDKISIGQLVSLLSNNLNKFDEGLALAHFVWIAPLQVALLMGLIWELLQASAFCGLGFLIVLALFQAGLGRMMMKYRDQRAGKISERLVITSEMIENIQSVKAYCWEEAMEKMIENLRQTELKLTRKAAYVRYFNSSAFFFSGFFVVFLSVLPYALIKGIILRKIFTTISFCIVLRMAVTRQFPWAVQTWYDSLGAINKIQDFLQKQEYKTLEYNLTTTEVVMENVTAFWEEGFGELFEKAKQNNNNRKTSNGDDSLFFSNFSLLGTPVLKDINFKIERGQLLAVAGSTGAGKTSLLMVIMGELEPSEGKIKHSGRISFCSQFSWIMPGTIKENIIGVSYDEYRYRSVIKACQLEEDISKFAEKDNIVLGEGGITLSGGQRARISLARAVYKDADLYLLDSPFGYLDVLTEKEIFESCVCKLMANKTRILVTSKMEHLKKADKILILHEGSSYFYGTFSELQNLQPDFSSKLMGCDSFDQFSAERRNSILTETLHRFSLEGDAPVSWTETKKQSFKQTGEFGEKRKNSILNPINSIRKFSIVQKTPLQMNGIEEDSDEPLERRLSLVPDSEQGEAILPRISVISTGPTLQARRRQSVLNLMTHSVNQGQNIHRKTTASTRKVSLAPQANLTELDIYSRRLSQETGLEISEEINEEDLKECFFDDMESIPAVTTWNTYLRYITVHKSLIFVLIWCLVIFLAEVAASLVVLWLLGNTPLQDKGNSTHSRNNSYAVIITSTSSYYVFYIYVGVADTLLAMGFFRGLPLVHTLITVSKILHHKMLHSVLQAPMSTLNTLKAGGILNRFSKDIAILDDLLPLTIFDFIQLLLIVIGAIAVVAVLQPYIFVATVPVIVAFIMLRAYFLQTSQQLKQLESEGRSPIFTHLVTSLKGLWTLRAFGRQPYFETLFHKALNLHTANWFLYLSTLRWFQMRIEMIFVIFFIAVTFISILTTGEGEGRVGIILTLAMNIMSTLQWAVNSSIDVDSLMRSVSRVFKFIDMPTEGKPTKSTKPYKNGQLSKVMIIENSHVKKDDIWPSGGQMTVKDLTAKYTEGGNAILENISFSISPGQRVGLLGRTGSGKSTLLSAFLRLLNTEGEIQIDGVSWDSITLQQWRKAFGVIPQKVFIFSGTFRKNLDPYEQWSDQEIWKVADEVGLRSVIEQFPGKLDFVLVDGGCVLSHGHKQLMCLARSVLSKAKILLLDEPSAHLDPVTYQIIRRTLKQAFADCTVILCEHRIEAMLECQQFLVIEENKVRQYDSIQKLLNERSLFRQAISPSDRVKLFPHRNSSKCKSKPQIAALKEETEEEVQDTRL
method-description: Cell Surface Expression-Horse Radish Peroxidase (CSE-HRP) Assay
Format: cell-based
stated-conditions: with co-corrector (2 μM of 3-[(2R,4R)-4-({[1-(2,2-difluoro-1,3-benzodioxol-5-yl)cyclopropyl]carbonyl}amino)-7-methoxy-3,4-dihydro-2H-chromen-2-yl]benzoic acid); read-out: EC50 (with co-corrector)
Method: Cell Surface Expression-Horse Radish Peroxidase (CSE-HRP) Assay The development was achieved by expressing the F508delCFTR mutation along with a horseradish peroxidase (HRP) in the fourth exofacial loop, and then measuring the HRP activity using luminescence readout from these cells, CFBE4lo-F508delCFTR-HRP, that were incubated overnight with the test corrector compounds, either without or with the co-corrector. […] The raw counts from the experiment were analyzed using Accelrys® Assay Explorer v3.3. […]

{"compound": "Cc1cc(C(F)(F)F)cc(N[C@@H]2[C@@H](C(C)(C)C)[C@H](C(=O)O)N(C(=O)[C@H]3C[C@H]4CC[C@@H]3C4)[C@@H]2c2ccccc2)n1 (racemic) [III-110]", "EC50": "1000 to 10000 nM"}

Need EC50 of COc1ccc(C(C)(C)C)cc1CN[C@H]1[C@H](C(C)(C)C)[C@@H](C(=O)O)N(C(=O)[C@H]2[C@H](C(F)(F)F)[C@H]3CC[C@@H]2O3)[C@H]1c1ccccc1OC(F)F (relative stereo) [Example I-223] , thanks.
< 1000 nM

Requested field: EC50. Item: COc1ccc(C(C)(C)C)cc1CN[C@H]1[C@H](C(C)(C)C)[C@@H](C(=O)O)N(C(=O)C2Cc3ccccc3CO2)[C@H]1c1cccnc1N(C)C (single isomer, unassigned) [II-480]
1000 to 10000 nM

Consider the compound COc1cccc([C@@H]2[C@H](Nc3cc(C(F)(F)F)cc(C)n3)[C@@H](C(C)(C)C)[C@H](C(=O)O)N2C(=O)C2CCCCO2)n1 (mixture of isomers) [III-63] and give its measured EC50.
> 10000 nM

Given COc1ccc(C(F)(F)F)cc1CN[C@H]1[C@H](C(C)(C)C)[C@@H](C(=O)O)N(C(=O)C2CCc3ccc(F)cc3O2)[C@H]1c1ccccc1 (some centres unmarked) [II-398] , state its recorded EC50.
1000 to 10000 nM

Which EC50 value belongs to COc1ccc(Cl)cc1CN[C@@H]1[C@@H](C(C)(C)C)[C@H](C(=O)O)N(C(=O)C2CCCCC2)[C@@H]1c1cccnc1N(C)C (racemic) [III-94] ?
1000 to 10000 nM

Value lookup for EC50; key = COc1ccc(C(C)(C)C)cc1CN[C@H]1[C@H](C(C)(C)C)[C@@H](C(=O)O)N(C(=O)C2CCCCC2)[C@H]1c1ccc(F)cc1 [Example I-112]
< 1000 nM

Quick one: EC50 for COc1c(CN[C@@H]2[C@@H](C(C)(C)C)[C@H](C(=O)O)N(C(=O)C3CCCCC3)[C@@H]2c2ccccc2)c(C)nn1C (racemic) [Example I-4] ?
1000 to 10000 nM

State the recorded EC50 for this entry: COc1cc(C(F)(F)F)ccc1CN[C@H]1[C@H](C(C)(C)C)[C@@H](C(=O)O)N(C(=O)C2C3CCCC32)[C@H]1c1ccccc1 (some centres unmarked) [Example 65]
1000 to 10000 nM

Returns the measured EC50 for the input compound. Input: CCC(CC)Cc1ccc(OC)c(CN[C@H]2[C@H](C(C)(C)C)[C@@H](C(=O)O)N(C(=O)C3CCCCC3)[C@H]2c2ccccc2)c1 [III-170]
< 1000 nM

What measured EC50 goes with COc1ccc(C(F)(F)F)cc1CN[C@@H]1[C@@H](C(C)(C)C)[C@@H](C(=O)O)N(C(=O)[C@H](OC)c2ccccc2)[C@H]1c1ccccc1 [II-395] ?
1000 to 10000 nM

Give its EC50 value. Item: COc1ncc(C2CCC2)cc1CN[C@H]1[C@H](C(C)(C)C)[C@@H](C(=O)O)N(C(=O)[C@@H]2CCCO2)[C@H]1c1ccccc1Br [Example 106]
1000 to 10000 nM

Need EC50, item COc1ccc(C(C)(C)C)cc1CN[C@H]1[C@H](C(C)(C)C)[C@@H](C(=O)O)N(C(=O)[C@H](C)Oc2ccccc2)[C@H]1c1ccccc1 [II-319]
< 1000 nM

Query: EC50; subject: COc1ncc(C2CCC2)cc1CN[C@H]1[C@H](C(C)(C)C)[C@@H](C(=O)O)N(C(=O)C2C3CCCC32)[C@H]1c1cccnc1N(C)C (some centres unmarked) [II-518]
1000 to 10000 nM

Which measured EC50 value corresponds to COc1ccc2ccccc2c1CN[C@H]1[C@H](C(C)(C)C)[C@@H](C(=O)O)N(C(=O)C2CCCCC2)[C@H]1c1ccccc1 [Example I-188] ?
1000 to 10000 nM

So what's the measured EC50 for this one? CC(C)OC(=O)N1[C@H](C(=O)O)[C@@H](C(C)(C)C)[C@H](NCC2CCCN(C(=O)OCc3ccccc3)C2)[C@@H]1c1ccccc1 (some centres unmarked) [II-583]
1000 to 10000 nM

Recorded EC50 of COc1ccc(C(F)(F)F)cc1CN[C@H]1[C@H](C(C)(C)C)[C@@H](C(=O)O)N(C(=O)[C@@H](OC)c2ccccc2)[C@H]1c1ccccc1 [Example I-34] , please.
1000 to 10000 nM
